Target: Guanine nucleotide-binding protein G(o) subunit alpha (Homo sapiens) (UniProt P09471)
Sequence (P09471 whole entry, looked up): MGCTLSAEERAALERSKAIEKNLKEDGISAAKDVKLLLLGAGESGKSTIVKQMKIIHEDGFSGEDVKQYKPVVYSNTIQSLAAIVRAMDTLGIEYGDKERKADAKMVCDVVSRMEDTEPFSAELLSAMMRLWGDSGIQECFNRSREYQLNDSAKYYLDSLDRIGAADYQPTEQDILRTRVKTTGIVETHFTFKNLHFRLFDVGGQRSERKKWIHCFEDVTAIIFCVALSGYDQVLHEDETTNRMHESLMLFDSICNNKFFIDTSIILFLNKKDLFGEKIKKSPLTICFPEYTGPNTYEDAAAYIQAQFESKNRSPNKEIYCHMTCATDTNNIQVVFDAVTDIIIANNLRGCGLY
Test: compounds changing RGS8 association with Galphao – biochemical, multiplexed bead flow cytometry, primary screen (AID 1423);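 also: Galphao activated as the GDP aluminium fluoride complex binding bead-coupled RGS8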
Settings: at 10 µM, actives lie on both sides
Out of some 220,000 compounds screened, about 750 (0.34%) were called active. Rule as the data show it: active = response below about 60% or above about 140%; inactive = in between. Only a selection was taken, and actives are over-represented in it overall.
Form entry, call: pick from active, inactive

Solved entries:
{"compound": "Cc1ccc(Cn2c(SCC(=O)N/N=C/c3ccccc3OCC(=O)O)nc3ccccc32)cc1", "class-name": "inactive"}
{"compound": "NC(=O)C1(N2CCCCC2)CCN(C(=S)Nc2ccc(Cl)cc2)CC1", "class-name": "inactive"}
{"compound": "COc1cc(CCC(=O)OCC(=O)Nc2cccc(S(N)(=O)=O)c2)cc(OC)c1OC", "class-name": "inactive"}
{"compound": "CC(C)(O)C#Cc1ccc(C(=O)N2CCC(C(N)=O)(N3CCCCC3)CC2)cc1", "class-name": "inactive"}
{"compound": "COc1cc(C(=O)NCc2ccc(-n3cccc3)cc2)cc(OC)c1OC", "class-name": "inactive"}
{"compound": "COc1ccc(-c2nc3cnccn3c2NC(C)(C)CC(C)(C)C)cc1O", "class-name": "inactive"}
{"compound": "Cc1cc(=O)[nH]c(SCC(=O)Nc2ccc(Br)cc2)n1", "class-name": "inactive"}
{"compound": "Cc1nc2cc(NC(=O)NC3CC3)ccc2n1C", "class-name": "inactive"}
{"compound": "O=C(Nc1ccn(Cc2ccccc2)n1)c1cccc(F)c1", "class-name": "inactive"}
{"compound": "OC(c1nc2ccccc2[nH]1)C(O)C(O)C(O)c1nc2ccccc2[nH]1 (configuration not stated)", "class-name": "inactive"}

Write down the call the test reported for this compound. Item: NS(=O)(=O)c1ccc(CCNC(=O)CCCn2c(SCC(=O)N3CCCC3)nc3ccsc3c2=O)cc1
inactive

Write down the call the test reported for this compound. Item: Cc1ccc(Cn2ccc(NC(=O)C3C4CCC(C4)C3C(=O)O)n2)cc1 (configuration not stated)
inactive

Write down the call the test reported for this compound. Item: O=C(COc1ccccc1)N1CCc2ccccc2C1
inactive

Write down the call the test reported for this compound. Item: CCCn1nnnc1NC(=O)COc1ccc(Cl)cc1C
active

Write down the call the test reported for this compound. Item: O=C(c1ccccc1)C(Cn1cncn1)C(Sc1ccccc1)c1ccccc1 (configuration not stated)
inactive

Write down the call the test reported for this compound. Item: N/C(=N\S(=O)(=O)c1ccc(Cl)cc1)N1CCOCC1
inactive

Write down the call the test reported for this compound. Item: Cn1cc(CCC(=O)N2CCCC(C(=O)c3ccc(C(C)(C)C)cc3)C2)cn1 (configuration not stated)
inactive

Write down the call the test reported for this compound. Item: Cc1nc2cc(NC(=O)Nc3cccc(F)c3)ccc2n1C
inactive

Write down the call the test reported for this compound. Item: COc1ccc(CCC(=O)OCC(=O)Nc2ccc(C)c(S(=O)(=O)N(C)C)c2)cc1
active

Write down the call the test reported for this compound. Item: Cc1ccc(NC(=O)CNCc2ccccn2)cc1S(=O)(=O)N(C)C
inactive

Write down the call the test reported for this compound. Item: CCOC(=O)N1CCN(C(=O)COc2ccc(Cl)cc2C)CC1
inactive

Write down the call the test reported for this compound. Item: CCCc1ccc(C(=O)[C@@H]2[C@@H](C(C)=O)N3c4ccc(F)cc4C=C[C@@H]3[C@@]23C(=O)Nc2ccccc23)cc1
inactive
